# target_desc: T1, 6L
# T1 construct: also called HLA-A2 / point-mutant NY-ESO peptide 6L complex on T2 cells
# assay_comment: flow cytometry on peptide-pulsed T2 cells, scFv 100 nM
quantity_kind: standardized gMFI

INSERT INTO measurements (binder, quantity_kind, reading) VALUES
  ('NYA-2045 (scFv, also called NYA-2045 tag adduct) scFv: GEVQLVESGGGLVQPGGSLRLSCAASGFSIRSYDIHWVRLAPGKGLEWVATISYDGSQKYYADSVKGRFTISRDESKNTLYLQMNSLRAEDTAVYHCARGSSGHYEAFDIWGQGTLVTVSSGGGGSGGGGSGGGGSQSVLTQPPSASGTPGQRVTISCSGSSSNIGNWYVSWYQQLPGTAPKLLIYDNNKRPSGVPDRFSGSKSGTSASLAISGLQSEDEADYYCGTWDSSLSAPWVFGGGTKLTVLGAAAGAGGDYKDDDDKGAAAHHHHHH', 'standardized gMFI', 8.8),
  ('NYA-2035 (scFv) scFv: GEVQLVESGGGVVQPGRSLTPSCSASGFSIRSYDIHWVRLAPGKGLEWVATISYDGSQKYFADSVKGRFTIFRDESENMVYLQMSGLRVEDTAVYHCARGSSGHYEAFDIWGQGTMVTVSSGGGGSGGGGSGGGGSQSVLTQPPSVSAAPGQKVTISCSGSSSNIGNWKVSWYQQLPGTAPKLLIYDNNKRPSGIPDRFSGSKSGTSATLGITGLQTGDEADYYCGTWDSSLSAPWVFGGGTKVTVLGAAAGAGGDYKDDDDKGAAAHHHHHH', 'standardized gMFI', 8.95),
  ('NYA-2048 (scFv, also called NYA-2048 tag adduct) scFv: GQVQLVESGGGVVQPGRSLRLSCAASGFSIRSYDMHWVRQAPGKGLEWVATISYDGSQKYYADSVKGRFTISRDNSKNTLYLQMSSLRAEDTAVYHCARGSSGHYEAFDIWGQGTLVTVSSGGGGSGGGGSGGGGSQSVLTQPPSASGTPGQRVTISCSGSSSNIGNWYVSWYQQLPGTAPKLLIYDNNKRPSGVPDRFSGSKSGTSASLAISGLQSEDEADYYCGTWDSSLSAPWVFGGGTKLTVLGAAAGAGGDYKDDDDKGAAAHHHHHH', 'standardized gMFI', 6.14);

Where do these numbers come from? They come from patent US20230348616A1.
